System: BDF1 mice, P388 leukemia ip, median survival T/C
Assay: NCI In Vivo Anticancer Drug Screen. Data for tumor model P388 Leukemia (intraperitoneal) in B6D2F1 (BDF1) mice
Conditions: endpoint: median survival time; dose: 25.0 mg/kg/injection; schedule: Q04DX003 (ip); vehicle: saline with Tween-80; higher = longer survival
Toxic doses and inconclusive results are not listed.
Reported T/C values for a set of molecules

Molecule | T/C
CC1CC[N-]CC1.CC1CC[N-]CC1.[Br][Pt+2]([Br])([Br])[Br] | 117 % of control
COC(=O)/C=C1\C(C(=O)OC)=Cc2ccccc2N1C | 104 % of control
CCCCCCCCOB(OCCCCCCCC)OCCCCCCCC | 91 % of control

Query block: I am curious: what T/C value has been reported for Cc1ccccc1-c1nc2cc(Cl)ccc2c(=O)o1 ?
Result block: 104 % of control

Query block: Please give the measured T/C for this molecule: CCOC(=O)C(=O)C1CCNC1=O (configuration not stated)
Result block: 100 % of control

Query block: Item under review: CCCCOP(=O)(O)CCCC.[Al] . Reported T/C?
Result block: 97 % of control

Query block: Requested read-out: T/C. Entry: COc1ccc(/C=N/NC(=O)C[n+]2ccccc2)c(OC)c1
Result block: 118 % of control

Query block: Entry under review: C1=C(c2ccccc2)C(c2ccccc2)C(c2ccccc2)C/C1=N/OCCN1CCCC1 (configuration not stated) . Reported T/C?
Result block: 100 % of control

* * *

Examples of compounds with documented T/C follow.
Test system: BDF1 mice, P388 leukemia ip, median survival T/C
Test: NCI In Vivo Anticancer Drug Screen. Data for tumor model P388 Leukemia (intraperitoneal) in B6D2F1 (BDF1) mice
Conditions: endpoint: median survival time; dose: 400.0 mg/kg/injection; schedule: Q04DX003 (ip); vehicle: saline with Tween-80; higher = longer survival
Toxic doses and inconclusive results are not listed.

Compound | Parameter | Value
CCOC(=O)C(CSCSC)NC(=O)/C=C/c1cccnc1 (stereo unspecified) | T/C | 120 % of control

Query block: Requested read-out: T/C. Entry: O=Cc1ccc(OC(=O)Nc2ccccc2)cc1
Result block: 86 % of control

Query block: Need T/C of Cc1nc2nc(N)nc(N)c2nc1Sc1ccc(Cl)cc1 , thanks.
Result block: 88 % of control

Query block: Can you share its T/C? I mean this compound: CC1(C)C(=O)C2(C(=O)O)CCC1C2 (stereo unspecified)
Result block: 100 % of control

* * *

Quick list: T/C per entry.
Tested on: BDF1 mice, P388 leukemia ip, median survival T/C
Assay: NCI In Vivo Anticancer Drug Screen. Data for tumor model P388 Leukemia (intraperitoneal) in B6D2F1 (BDF1) mice
Settings: endpoint: median survival time; dose: 100.0 mg/kg/injection; schedule: Q04DX003 (ip); vehicle: Klucel (hydroxypropylcellulose) (HPC); higher = longer survival
Toxic doses and inconclusive results are not listed.

# annotated cases, reported T/C shown
Molecule | System Under Test | T/C
c1ccc(/C(=N\Nc2nc3ccccc3s2)c2ccncc2)cc1 | BDF1 mice, P388 leukemia ip, median survival T/C | 100 % of control
CC(C)/[N+]([O-])=C/C=C/c1ccccc1 | BDF1 mice, P388 leukemia ip, median survival T/C | 100 % of control
CC(C(=O)c1cccs1)C(O)(C(F)(F)F)C(F)(F)F (stereo not given) | BDF1 mice, P388 leukemia ip, median survival T/C | 91 % of control
O=c1c2ccccc2cc2ccccn12 | BDF1 mice, P388 leukemia ip, median survival T/C | 91 % of control
Cn1c2nc3ccccc3c-2nc2ccccc21 | BDF1 mice, P388 leukemia ip, median survival T/C | 101 % of control
C/C(N=Nc1ccccc1[N+](=O)[O-])=N\Nc1ccccc1 | BDF1 mice, P388 leukemia ip, median survival T/C | 122 % of control

Query block: Requested read-out: T/C. Entry: CN(C)c1ccc(/C=C/c2nc3ccccc3o2)cc1
Result block: 90 % of control

Query block: Which T/C value is on record for Cc1ccc(OC/C=C/CSc2ccc(C)cc2)cc1 ?
Result block: 108 % of control

Query block: GET /values?readout=T/C&item= O=C1CC=Nc2ccc([N+](=O)[O-])cc21
Result block: 100 % of control

Query block: # query: T/C of entry CC(C)(C)c1ccc(C(c2ccc(C(C)(C)C)cc2)C(Cl)Cl)cc1
Result block: 91 % of control

Query block: Field request: T/C | item: CCCCCCCCCCCCS(=O)(=O)O (tested in a mixture with another compound)
Result block: 95 % of control

Query block: T/C for CCN(c1ccc2c(c1)C(=O)c1ccccc1-2)S(=O)(=O)c1ccc(C)cc1 ?
Result block: 100 % of control

Query block: Consider the molecule CCOC12c3c4cccc3C(=O)c3cccc(c31)C(=O)c1cccc(c12)C4=O and give its measured T/C.
Result block: 100 % of control

Query block: Fill blank: measured T/C of the molecule CC(C)OC(CCC#N)c1ccccc1 (stereo not given) is ____.
Result block: 95 % of control

Query block: // query T/C value for entry O=[N+]([O-])c1ccc(N=Cc2ccccc2)cc1
Result block: 100 % of control

* * *

Test system: BDF1 mice, P388 leukemia ip, median survival T/C
Assay: NCI In Vivo Anticancer Drug Screen. Data for tumor model P388 Leukemia (intraperitoneal) in B6D2F1 (BDF1) mice
Settings: endpoint: median survival time; dose: 12.5 mg/kg/injection; schedule: Q01DX009 (ip); vehicle: Klucel (hydroxypropylcellulose) (HPC)
Inconclusive results and toxic doses are left out. Rule for the calls: active = survival T/C of 150% or more; inactive = T/C below 125% in these data.
Write down one outcome, taken from label 1 (active), label 0 (inactive)

Here's what some known entries look like.
Molecule | Cat
N#CC(C#N)=Cc1ccc(C=C(C#N)C#N)cc1 | label 0
C[N+](C)(C)CC(O)CC#N (stereo unspecified) | label 0
O=[N+]([O-])/C=C/c1ccc([N+](=O)[O-])cc1Cl | label 0
C=CCOC(=O)c1ccco1 | label 0
COc1cc(C=Nc2ccc(-c3nc(Cc4ccccc4)sc3C)cc2)ccc1N(CCCl)CCCl | label 1

Query block: Record request — test call for CN(C)c1ccc(P(c2ccc(N(C)C)cc2)c2ccc(N(C)C)cc2)cc1
Result block: label 0

* * *

Test system: BDF1 mice, P388 leukemia ip, median survival T/C
Assay: NCI In Vivo Anticancer Drug Screen. Data for tumor model P388 Leukemia (intraperitoneal) in B6D2F1 (BDF1) mice
Conditions: endpoint: median survival time; dose: 12.5 mg/kg/injection; schedule: Q01DX009 (ip); vehicle: saline with Tween-80; higher = longer survival
Toxic doses and inconclusive results are not listed.
Parameter: T/C

Previously resolved entries follow.
Compound | Value
CC(=O)CC(OC(=O)c1cc([N+](=O)[O-])cc([N+](=O)[O-])c1)(C(F)(F)F)C(F)(F)F | 118 % of control
CC1CC2C(CC1O)C2(C)C (stereo unspecified) | 100 % of control
CCC(C)(CC(=O)O)CC(=O)O | 116 % of control
Nc1ccc(S(=O)(=O)Nc2ccc([N+](=O)[O-])cc2)cc1 | 87 % of control
CC1=CC(=NC(=O)CBr)C=C/C1=N\S(=O)(=O)c1ccccc1 | 111 % of control

Consider the record given below.
Query block: So what does the record say about T/C for O=C(CO)c1ccccc1 ?
Result block: 95 % of control

* * *

Test system: BDF1 mice, P388 leukemia ip, median survival T/C
Test: NCI In Vivo Anticancer Drug Screen. Data for tumor model P388 Leukemia (intraperitoneal) in B6D2F1 (BDF1) mice
Details: endpoint: median survival time; dose: 100.0 mg/kg/injection; schedule: Q01DX009 (ip); vehicle: saline with Tween-80; higher = longer survival
Toxic doses and inconclusive results are not listed.
Quick list: T/C per entry.

Molecule | Value
Cc1cc(C)c(N)c(Br)c1C | 100 % of control
Cc1onc(-c2ccccc2)c1NC(=O)OC(C)c1cccnc1 (stereo not drawn) | 108 % of control
C=C(C)C(=O)NCCC(=O)Oc1ccc([N+](=O)[O-])cc1 | 87 % of control
NC(=S)S/C=C/C(=O)O | 94 % of control
O=[N+]([O-])c1ccc([I+]c2ccccc2)cc1 | 158 % of control
Cc1cc(N(C)C)c2ccc3ccccc3c2n1 | 95 % of control
NC(Cc1ccc(O)cc1)C(=O)O (stereo not drawn) | 100 % of control
CCN(CC)CCC1(C(N)=O)Cc2ccccc2N(CC)c2ccccc21 (stereo not drawn) | 100 % of control

Query block: Which T/C value belongs to Cc1ccc(Sc2ccccc2C(C)(C)O)cc1 ?
Result block: 101 % of control

Query block: What T/C value was documented for this molecule, C=C(C)c1ccc(C)c(C)c1 ?
Result block: 106 % of control

Query block: Endpoint output: T/C of COc1ccc(C(=O)C(C)Br)c(OCc2ccccc2)c1OC (stereo not drawn) . Value?
Result block: 90 % of control

Query block: Tell me the measured T/C of ClCCN=Cc1ccc(Cl)cc1 , please.
Result block: 116 % of control

Query block: Which T/C reading was recorded for the molecule COc1cccc(/C=C/C(=O)c2ccc(Cl)cc2)c1OC ?
Result block: 100 % of control
